Entries and their measured IC50 follow.
Target: α1
Test: α1 binding (method not described)
measurement.name: IC50 (nM)

- O=C1Cc2c(ccc3c2OC(CNCc2ccccc2)CC3)N1 (single isomer, unassigned; (+)) [Example 2a]: 519
- Cc1ccc(CNCC2CCc3ccc4c(c3O2)CC(=O)N4)cc1 (stereo not drawn): 194
- O=C1Cc2c(ccc3c2OC(CNCc2ccc(Cl)cc2)CC3)N1 (stereo not drawn): 184

###

Biological target: dopamine autoreceptor (Rattus norvegicus)
Construct: from tissue; host or cells: rat striatal brain tissue homogenate
Sequence (P61169 whole entry): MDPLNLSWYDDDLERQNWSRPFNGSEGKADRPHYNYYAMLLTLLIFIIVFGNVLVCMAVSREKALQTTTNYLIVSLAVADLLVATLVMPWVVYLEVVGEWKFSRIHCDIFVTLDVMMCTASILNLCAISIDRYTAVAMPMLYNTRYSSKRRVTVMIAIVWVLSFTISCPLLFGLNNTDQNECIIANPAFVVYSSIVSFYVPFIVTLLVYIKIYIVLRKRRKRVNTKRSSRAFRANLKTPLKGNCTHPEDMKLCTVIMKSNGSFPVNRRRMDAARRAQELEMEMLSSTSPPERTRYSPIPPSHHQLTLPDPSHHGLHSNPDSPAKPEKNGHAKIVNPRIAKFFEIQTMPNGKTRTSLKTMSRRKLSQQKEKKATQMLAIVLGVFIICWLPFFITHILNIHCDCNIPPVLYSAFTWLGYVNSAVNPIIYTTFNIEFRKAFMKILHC
Test: Affinity for the dopamine autoreceptor: [3H]-quinpirole binding in homogenized rat striatal brain tissue
Settings: [3H]-quinpirole, rat striatal brain tissue; read-out: IC50 (nM) D2 Quin.
measurement.name: IC50 (nM)

- O=C1Cc2c(ccc3c2OC(CNCc2ccc(F)cc2)CC3)N1 (centres unmarked) [Example 1b]: 0.83
- COc1ccc(CNCC2CCc3ccc4c(c3O2)CC(=O)N4)cc1 (centres unmarked) [Example 1c]: 0.96
- O=C1Cc2c(ccc3c2OC(CNCc2ccccc2)CC3)N1 (single isomer, unassigned; (-)) [Example 2b]: 0.27
- Cc1ccc(CNCC2CCc3ccc4c(c3O2)CC(=O)N4)cc1 (centres unmarked) [Example 1d]: 0.45
- Cc1ccc(CNCC2CCc3ccc4c(c3O2)CC(=O)N4)c(C)c1 (centres unmarked) [Example 1f]: 2.62
- O=C1Cc2c(ccc3c2OC(CNCc2ccc(Cl)cc2)CC3)N1 (centres unmarked) [Example 1e]: 0.64
- O=C1Cc2c(ccc3c2OC(CNCc2ccccc2)CC3)N1 (single isomer, unassigned; (+)) [Example 2a]: 16.4
- O=C1Cc2c(ccc3c2OC(CNCc2ccccc2)CC3)N1 (centres unmarked) [Example 1a]: 0.73

###

Entries and their measured Ratio antagonist follow.
Target: dopamine autoreceptor (Rattus norvegicus)
Construct: from tissue; host or cells: rat striatal brain tissue homogenate
Assay: Affinity for the dopamine autoreceptor: [3H]-quinpirole binding in homogenized rat striatal brain tissue
Details: ratio of D2 Spiper IC50 to D2 Quin. IC50 (LowAg/HighAg, predicts intrinsic activity)
Method: Affinity for the dopamine autoreceptor was established by a modification of the standard experimental test procedure of Seemen and Schaus, European Journal of Pharmacology 203: 105-109, 1991, wherein homogenized rat striatal brain tissue is incubated with [^3H]-quinpirole (Quin.) at various concentrations of test compound, filtered, washed and counted in a Betaplate scintillation counter.
measurement.name: Ratio antagonist

* O=C1Cc2c(ccc3c2OC(CNCc2ccccc2)CC3)N1 (single isomer, unassigned; (+)) [Example 2a] | 45
* O=C1Cc2c(ccc3c2OC(CNCc2ccc(F)cc2)CC3)N1 (stereo not drawn) [Example 1b] | 375
* Cc1ccc(CNCC2CCc3ccc4c(c3O2)CC(=O)N4)cc1 (stereo not drawn) [Example 1d] | 229

###

Target: 5-HT1a (Homo sapiens)
Sequence (P08908 whole entry, species assumed): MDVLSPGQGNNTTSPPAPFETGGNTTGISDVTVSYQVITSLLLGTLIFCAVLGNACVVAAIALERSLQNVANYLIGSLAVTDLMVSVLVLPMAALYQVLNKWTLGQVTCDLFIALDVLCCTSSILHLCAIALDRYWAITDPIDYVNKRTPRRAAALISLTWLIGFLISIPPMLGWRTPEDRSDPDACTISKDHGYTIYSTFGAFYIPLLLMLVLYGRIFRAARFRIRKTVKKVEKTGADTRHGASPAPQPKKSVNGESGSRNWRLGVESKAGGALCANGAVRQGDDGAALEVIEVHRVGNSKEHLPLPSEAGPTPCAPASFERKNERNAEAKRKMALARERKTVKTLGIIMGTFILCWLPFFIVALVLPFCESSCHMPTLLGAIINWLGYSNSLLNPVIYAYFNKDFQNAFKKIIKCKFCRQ
Experiment: 5-HT1a binding (method not described)
Settings: read-out: IC50 (nM) 5-HT1a.
measurement.name: log10(IC50) (log10 of the value in nM)

- O=C1Cc2c(ccc3c2OC(CNCc2ccccc2)CC3)N1 (stereo not shown) [Example 1a]: 1.53
- O=C1Cc2c(ccc3c2OC(CNCc2ccc(F)cc2)CC3)N1 (stereo not shown): 1.20
- O=C1Cc2c(ccc3c2OC(CNCc2ccc(Cl)cc2)CC3)N1 (stereo not shown): 0.88
- Cc1ccc(CNCC2CCc3ccc4c(c3O2)CC(=O)N4)cc1 (stereo not shown): 1.00
- O=C1Cc2c(ccc3c2OC(CNCc2ccccc2)CC3)N1 (single isomer, unassigned; (+)) [Example 2a]: 2.52
- COc1ccc(CNCC2CCc3ccc4c(c3O2)CC(=O)N4)cc1 (stereo not shown): 1.58
- O=C1Cc2c(ccc3c2OC(CNCc2ccccc2)CC3)N1 (single isomer, unassigned; (-)) [Example 2b]: 1.23

###

Biological target: dopamine autoreceptor (Rattus norvegicus)
Construct: from tissue; host or cells: rat striatal brain tissue homogenate
Test: Affinity for the dopamine autoreceptor: [3H]-quinpirole binding in homogenized rat striatal brain tissue
Details: ratio of D2 Spiper IC50 to D2 Quin. IC50 (LowAg/HighAg, predicts intrinsic activity)
Note to self: use class 1 only for Ratio antagonist readings below 200; a reading exactly at 200 still gets class 0.

- COc1ccc(CNCC2CCc3ccc4c(c3O2)CC(=O)N4)cc1 (centres unmarked): class 0
- O=C1Cc2c(ccc3c2OC(CNCc2ccc(Cl)cc2)CC3)N1 (centres unmarked): class 0
- O=C1Cc2c(ccc3c2OC(CNCc2ccccc2)CC3)N1 (single isomer, unassigned; (-)) [Example 2b]: class 0
- Cc1ccc(CNCC2CCc3ccc4c(c3O2)CC(=O)N4)c(C)c1 (centres unmarked): class 1

###

Target: α1
Assay: α1 binding (method not described)
measurement.name: IC50 (nM)

- COc1ccc(CNCC2CCc3ccc4c(c3O2)CC(=O)N4)cc1 (centres unmarked): 258
- O=C1Cc2c(ccc3c2OC(CNCc2ccccc2)CC3)N1 (centres unmarked) [Example 1a]: 244
- O=C1Cc2c(ccc3c2OC(CNCc2ccc(F)cc2)CC3)N1 (centres unmarked): 352
- Cc1ccc(CNCC2CCc3ccc4c(c3O2)CC(=O)N4)c(C)c1 (centres unmarked): 81
- O=C1Cc2c(ccc3c2OC(CNCc2ccccc2)CC3)N1 (single isomer, unassigned; (-)) [Example 2b]: 330
